- Assay Summary: Volume of distribution in rat
- Format: ADME, organism-based
- Test Context: in vivo
Observed Property: Vd
Just the number plus its unit, please.

Problem: Vd lookup needed for CC(C)n1cc(-c2ccc(C#N)c(F)c2)c2ccc(NS(C)(=O)=O)cc21 , thanks.
Result: 2.3 L/kg

---

So I've got pKi readings for Glucocorticoid receptor (Homo sapiens, UniProt P04150), take a look.
Quick note: pKi means taking -log10 of the concentration in moles per liter.

# Smi, Value Reported
measured = [
    ("Cc1cc(-c2cn(C(C)C)c3cc(NS(C)(=O)=O)ccc23)ccc1C#N", 6.80),
]

Note: attention shifts to another entry.
Problem: Request body: readout pKi, system Glucocorticoid receptor (Homo sapiens, UniProt P04150), query COc1cc(-c2cn(C(C)C)c3cc(NS(C)(=O)=O)ccc23)ccc1C#N . Return the value.
Result: 6.01
